Listing of recorded optical density by entry.
TARGET_DESC: T1, human ACVR2A (human, UniProt P27037 20-135, limits assumed); note: test concentration or dose not given here
T1 construct: coated antigen of the initial ELISA; also called activin receptor, type II A
MEASUREMENT_DESCRIPTION: ELISA
Report the value in OD with no unit label.

370_D05 (antibody, V domains shown, Group III) VH: EVQLLESGGGLVQPGGSLRLSCAASGFTFDDYSMNWVRQAPGKGLEWVSNINYNGGYKGYADSVKGRFTISRDNSKNTLYLQMNSLRAEDTAVYYCARGANWHDTALDYWGQGTLVTVSS VL: DIQMTQSPSSLSASVGDRVTITCRASQSIITYLNWYQQKPGKAPKLVIYAATSRHSGVPSRFSGSGSGTDFTLTISSLQPEDFATYYCQQSYDTPLTFGGGTKVEIK	2.98

QUERY: Give the measured optical density of 373_E10 (antibody, V domains shown, Group III) VH: EVQLLESGGGLVQPGGSLRLSCAASGFTFSDYSMNWVRQAPGKGLEWVSGINYNGGYTSYADSVKGRFTISRDNSKNTLYLQMNSLRAEDTAVYYCARGANWHDTALDYWGQGTLVTVSS VL: DIQMTQSPSSLSASVGDRVTITCRASQSILTYVNWYQQKPGKAPKLVIYAATSRHSGVPSRFSGSGSGTDFTLTISSLQPEDFATYYCQQSYETPLTFGGGTKVEIK .
RESULT: 3.72

QUERY: Given the entry 375_G05 (antibody, V domains shown, Group III) VH: EVQLLESGGGLVQPGGSLRLSCAASGFTFSSYSMNWVRQAPGKGLEWVAGINYNGGYTSYADSVKGRFTISRDNSKNTLYLQMNSLRAEDTAVYYCARGANWHDTALDYWGQGTLVTVSS VL: DIQMTQSPSSLSASVGDRVTITCRASQSIVSYLNWYQQKPGKAPKLLIYAVTSRASGVPSRFSGSGSGTDFTLTISSLQPEDFATYYCQQSYDSPLTFGGGTKVEIK , report its measured optical density.
RESULT: 3.71

QUERY: Return reported optical density; argument: 372_G12 (antibody, V domains shown, Group III) VH: EVQLLESGGGLVQPGGSLRLSCAASGFTFDSYSMNWVRQAPGKGLEWVAGINYNGGYTGYADSVKGRFTISRDNSKNTLYLQMNSLRAEDTAVYYCARGANWHDTHLDYWGQGTLVTVSS VL: DIQMTQSPSSLSASVGDRVTITCRASQSILTYLNWYQQKPGKAPKLVIYAATSRHSGVPSRFSGSGSGTDFTLTISSLQPEDFATYYCQQSYDSPLTFGGGTKVEIK
RESULT: 2.41
